- System: S. aureus ATCC 13709
- experiment summary: MIC, antibacterial potency, S. aureus
- Type: cell-based
- reported conditions: S. aureus (SA); in µg/mL

molecule	MIC, SA
CCc1[nH]c2nc(Sc3ccc4cncnc4c3)nc(N3CC[C@@H](N)C3)c2c1Cl [701,049]	<=0.5
CCc1[nH]c2nc(Sc3cnc4cccnc4c3)nc(N3C[C@H](N)[C@H](C(=O)NCC(C)O)C3)c2c1Cl (stereo partly drawn) [701,018]	>64
CCc1[nH]c2nc(Sc3cncc(C#N)c3)nc(N3CC4C(C3)C4(N)C(N)=O)c2c1Cl (stereo not drawn) [700,969]	<=0.5

----------
- Tested on: S. aureus ATCC 13709
- experiment summary: MIC, antibacterial potency, S. aureus
- Type: cell-based
- reported conditions: S. aureus (SA); in µg/mL

molecule	MIC, SA
CCc1[nH]c2nc(Oc3ccc4nccnc4c3)nc(Oc3ccc4c(c3)ncc[n+]4[O-])c2c1Br	<=0.5
CCc1[nH]c2nc(Sc3cnc4ccc[n+]([O-])c4c3)nc(N3CC(NS(C)(=O)=O)C3)c2c1Cl	<=0.5
CCc1[nH]c2nc(Sc3ccc4c(N5CC(C6(N)CC6)C5)cc(C(=O)O)nc4c3)nc(N3CC[C@@H](N)C3)c2c1Cl	>64
CCc1[nH]c2nc(Sc3cnc4nccnc4c3)nc(N3CCC(CO)C3)c2c1Cl (stereo not shown)	<=0.5

----------
- System: S. pneumoniae ATCC 51916
- experiment summary: MIC, S. pneumoniae
- Format: cell-based
- reported conditions: S. pneumoniae
Values of MIC Spn52 strictly less than 8 µg/mL map to TRUE, and values of at least 8 µg/mL map to FALSE.

compound	label value
CCc1[nH]c2nc(Sc3cnc4nccnc4c3)nc(N3CC[C@H](N(C)C)C3)c2c1Cl.O=C(O)C(F)(F)F [700,497]	TRUE
CCc1[nH]c2nc(Sc3cc(OC)nc(OC)n3)nc(N3CC(O)C3)c2c1Cl.Cl.Cl [700,411]	FALSE
CCc1[nH]c2nc(Oc3ccc(OC)nc3)nc(Oc3ccc(OC)nc3)c2c1Cl.O=C(O)C(F)(F)F [700,592]	TRUE

Just wondering, is MIC Spn52 of CCc1[nH]c2nc(Sc3cccnc3)nc(NCc3ccccc3OC)c2c1Br.O=C(O)C(F)(F)F [700,271] below 8 µg/mL?
FALSE

Just wondering, is MIC Spn52 of CCc1[nH]c2nc(Sc3cnc4nccnc4c3)nc(N3CC4CNC4C3)c2c1Br.O=C(O)C(F)(F)F (stereo not shown) [700,673] below 8 µg/mL?
TRUE

----------
- System: S. aureus ATCC 13709
- experiment summary: MIC, antibacterial potency, S. aureus
- Type: cell-based
- reported conditions: S. aureus (SA); in µg/mL
quantity measured: MIC, SA

Examples with their reported MIC, SA follow.
compound	MIC, SA
CCc1[nH]c2nc(Oc3cnc(C)nc3)nc(N3CC4C(N)C4C3)c2c1Cl (centres unmarked)	<=0.5
CCc1[nH]c2nc(Sc3ccc4nc(C)cc(C(N)=O)c4c3)nc(C3CC[C@@H](N)C3)c2c1Cl (some centres unmarked)	>64
CCc1[nH]c2nc(Sc3ccc4cccnc4c3)nc(N3CC4C(N)C4C3)c2c1Cl (centres unmarked)	<=0.5
CCc1[nH]c2nc(Oc3cncnc3)nc(Oc3ccc4c(N5CCOCC5)ncnc4c3)c2c1Br	<=0.5
CCc1[nH]c2nc(Oc3ccc4nccnc4c3)nc(Oc3cncc(C#N)c3)c2c1Br	<=0.5

Provide only the value of recorded MIC, SA for CCc1[nH]c2nc(Sc3cnc4cccnc4c3)nc(N3C[C@H](N)[C@H](C(=O)NCC(O)CO)C3)c2c1Cl (some centres unmarked)
>32

Provide only the value of recorded MIC, SA for CCc1[nH]c2nc(Sc3cnc4cccnc4c3)nc(N3CC[C@@H](N)C3)c2c1Cl.O=C(O)C(F)(F)F.O=C(O)C(F)(F)F
<=0.5

Provide only the value of recorded MIC, SA for CCc1[nH]c2nc(Sc3cnc4cccnc4c3)nc(N3CCNCCNCC3)c2c1Cl
>64

----------
- Tested on: S. aureus ATCC 13709
- experiment summary: MIC, antibacterial potency, S. aureus
- Assay type: cell-based
- reported conditions: S. aureus (SA); in µg/mL
quantity measured: MIC, SA

compound	quantity measured	value reported
CCc1[nH]c2nc(SC)nc(N3CC[C@@H](N)C3)c2c1Cl	MIC, SA	>64
CCc1[nH]c2nc(Oc3cncc(C(=O)OC)c3)nc(N3CC4C(N)C4C3)c2c1Cl (stereo not shown)	MIC, SA	>64
CCc1[nH]c2nc(Oc3ccc[n+]([O-])c3)nc(Oc3ccc[n+]([O-])c3)c2c1Br	MIC, SA	<=0.5
CCc1[nH]c2nc(Oc3ccc4nccnc4c3)nc(Oc3ccc(C#N)cc3Cl)c2c1Cl	MIC, SA	>64

----------
- System: S. aureus ATCC 13709
- experiment summary: MIC, antibacterial potency, S. aureus
- Type: cell-based
- reported conditions: S. aureus (SA); in µg/mL
Here, each record is paired with measured MIC, SA data.
No unit in the answer, please; the number alone is enough.

Provide only the value of recorded MIC, SA for CCc1[nH]c2nc(Sc3ccc4nc(C)nc(N5CC(CN)C5)c4c3)nc(N3CC[C@@H](N)C3)c2c1Cl
64

Provide only the value of recorded MIC, SA for CCc1[nH]c2nc(Oc3cncnc3)nc(N3CCCC3CO)c2c1Cl (stereo not shown)
8

Provide only the value of recorded MIC, SA for CCc1[nH]c2nc(Sc3cnc4cccnc4c3)nc(N3C[C@@H](N)[C@@H](C(=O)N[C@@H](CO)c4ccccc4)C3)c2c1Cl
4

Provide only the value of recorded MIC, SA for CCc1[nH]c2nc(Sc3cnc4cccnc4c3)nc(N3CC4CC3CC4N)c2c1Cl (stereo not shown)
1

Provide only the value of recorded MIC, SA for CCc1[nH]c2nc(Oc3cncnc3)nc(Oc3ccc4ncnc(N5CC(N)C5)c4c3)c2c1Br
4

Provide only the value of recorded MIC, SA for CCc1[nH]c2nc(Sc3ccc4cc5c([n+]([O-])c4c3)CCN(C(=O)CCCC[C@@H]3SC[C@@H]4NC(=O)N[C@@H]43)C5)nc(N3CC4C(C3)C4(N)C(N)=O)c2c1Cl (stereo partly shown)
4

Provide only the value of recorded MIC, SA for CCc1[nH]c2nc(Sc3ccc4cc5c([n+]([O-])c4c3)CCNC5)nc(N3CCc4nc(N)sc4C3)c2c1Cl
1

Provide only the value of recorded MIC, SA for CCc1[nH]c2nc(Sc3cnc4c(N)nc(CN5CCOCC5)nc4c3)nc(N3CC[C@@H](N)C3)c2c1Cl
4

Provide only the value of recorded MIC, SA for CCc1[nH]c2nc(Sc3ccc4c(Oc5cccc(CNC)c5)cc(C)nc4c3)nc(N3CC[C@@H](N)C3)c2c1Cl
8

----------
- Test system: S. aureus ATCC 13709
- experiment summary: MIC, antibacterial potency, S. aureus
- Type: cell-based
- reported conditions: S. aureus (SA); in µg/mL
quantity measured: MIC, SA

compound	target or test system	MIC, SA
Cc1nc(Sc2cncc(C(N)=O)c2)nc2[nH]c(C(C)O)c(Cl)c12 (stereo not drawn)	S. aureus ATCC 13709	>64
CCc1[nH]c2nc(Oc3ccc4nccnc4c3)nc(N3CC(O)C3)c2c1Cl	S. aureus ATCC 13709	<=0.5
CCc1[nH]c2nc(Oc3cncc(C#N)c3)nc(N3CCOCC3)c2c1Cl	S. aureus ATCC 13709	<=0.5
CCc1[nH]c2nc(Sc3cncc(S(=O)(=O)N(C)C)c3)nc(N3CC[C@@H](N)C3)c2c1C	S. aureus ATCC 13709	>64
CCc1[nH]c2nc(SC)nc(N3CC[C@@H](N)C3)c2c1C#N	S. aureus ATCC 13709	>64

Provide only the value of recorded MIC, SA for CCc1[nH]c2nc(Sc3ccc4c(N5CC[C@@H](N)C5)cc(=O)oc4c3)nc(N3CC[C@@H](N)C3)c2c1Cl
>64

Provide only the value of recorded MIC, SA for CCc1[nH]c2nc(Oc3cnc4c(c3)ncn4C)nc(Oc3cncc(OC)c3)c2c1Br
<=0.5

Provide only the value of recorded MIC, SA for CCc1[nH]c2nc(Sc3cnc4nccnc4c3)nc(N3CCC(c4cccnc4)C3)c2c1Cl (stereo not drawn)
<=0.5

Provide only the value of recorded MIC, SA for CCc1[nH]c2nc(Oc3ccc4nccnc4c3)nc(Oc3ccc4c(c3)ncn4C)c2c1Br
<=0.5

----------
- Test system: S. aureus ATCC 13709
- experiment summary: MIC, antibacterial potency, S. aureus
- Format: cell-based
- reported conditions: S. aureus (SA); in µg/mL
quantity measured: MIC, SA

molecule	quantity measured	value reported
CC(C)(C)OC(=O)N[C@@H]1CCN(c2nc(Sc3cnc4nccnc4c3)nc3[nH]c(C4CC4)c(Cl)c23)C1	MIC, SA	>64
CCc1[nH]c2nc(Oc3cncc(C#N)c3)nc(Oc3cccc(C(=O)O)c3)c2c1Cl	MIC, SA	>64
CCc1[nH]c2nc(Oc3cnc4cccnc4c3)nc(N3CC4C(N)C4C3)c2c1Cl (stereo not drawn)	MIC, SA	<=0.5
